experimentalSystem: T1, Human ACVR2A (human, UniProt P27037 20-135, limits assumed); further: test concentration or dose not given here
T1 construct: also called activin receptor, type II A
T1 sequence (P27037 20-135 limits assumed): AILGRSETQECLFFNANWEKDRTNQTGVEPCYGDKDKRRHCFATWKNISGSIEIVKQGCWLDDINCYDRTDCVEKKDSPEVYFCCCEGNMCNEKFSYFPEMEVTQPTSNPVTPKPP
assaySummary: ELISA

[
  {
    "binder": "367_E09 (antibody, V domains shown) VH: EVQLLESGGGLVQPGGSLRLSCAASGFTFSDYGMNWVRQAPGKGLEWVASINYNSGYKGYADSVKGRFTISRDNSKNTLYLQMNSLRAEDTAVYYCARSANWHDTALDYWGQGTLVTVSS VL: DIQMTQSPSSLSASVGDRVTITCRASQSILSYLNWYQQKPGKAPKLVIYATTSRASGVPSRFSGSGSGTDFTLTISSLQPEDFATYYCQQSYETPLTFGGGTKVEIK",
    "unitsSymbol": "OD",
    "optical density": 1.66
  },
  {
    "binder": "374_B12 (antibody, V domains shown) VH: EVQLLESGGGLVQPGGSLRLSCAASGFTFDSYSMNWVRQAPGKGLEWVAGINYNGGYTGYADSVKGRFTISRDNSKNTLYLQMNSLRAEDTAVYYCARSANWHDTHLDYWGQGTLVTVSS VL: DIQMTQSPSSLSASVGDRVTITCRASQSISSYLNWYQQKPGKAPKLVIYAATSRASGVPSRFSGSGSGTDFTLTISSLQPEDFATYYCQQSYDNPLTFGGGTKVEIK",
    "unitsSymbol": "OD",
    "optical density": 3.49
  },
  {
    "binder": "367_H06 (antibody, V domains shown) VH: EVQLLESGGGLVQPGGSLRLSCAASGFTFSSYGMNWVRQAPGKGLEWVSNINYNGGYTGYADSVKGRFTISRDNSKNTLYLQMNSLRAEDTAVYYCARSANWHDTHLDYWGQGTLVTVSS VL: DIQMTQSPSSLSASVGDRVTITCRASQSIITYLNWYQQKPGKAPKLLIYAATSRASGVPSRFSGSGSGTDFTLTISSLQPEDFATYYCQQSYDTPLTFGGGTKVEIK",
    "unitsSymbol": "OD",
    "optical density": 2.69
  }
]
